Tested on: Leishmania donovani amastigotes (strain MHOM/ET/67/L82)
method_summary: L. donovani axenic amastigote assay (resazurin)
Type: cell-based
assay_conditions: Leishmania donovani, 72 h, pH 5.4, read-out: IC50 L. donovani (Ldon)
pIC50: −log10 of the molar value.

compound | censoring_operator | pIC50
C=C1C(=O)OC2C=C(C)C(OC(C)=O)CC3OC3(C)CC(OC(=O)C(C)=CC)C12 (centres unmarked) [Compound 39] | = | 4.52
C=C1C(=O)OC2CC(C)C3C=CC(=O)C3(C)C(O)C12 (centres unmarked) [Compound 8] | < | 5.40

* * *

Measured IC50 at 72 h values are reported for all entries that follow.
method_summary: Cytotoxicity against L6 cells (Alamar blue)
assay_conditions: rat
recorded_endpoint: IC50 at 72 h (µM)

compound | recorded_endpoint | assay_result
C=C1C(=O)OC2CC(C)C3C=CC(=O)C3(C)C(O)C12 (stereo not shown) [Compound 8] | IC50 at 72 h | 2.44
COc1cc([C@@H]2c3cc4c(cc3[C@H](O)[C@H]3COC(=O)[C@H]23)OCO4)cc(OC)c1OC [podophyllotoxin, reference compound] | IC50 at 72 h | 0.012
C=C1C(=O)OC2CC3(C)CCCC(=C)C3CC12 (stereo not shown) [Compound 25] | IC50 at 72 h | 4.48
C=C1C(=O)O[C@@H]2C[C@@H](C)[C@@H]3C=CC(=O)[C@@]3(C)[C@@H](O)[C@H]12 [Compound 1, helenalin] | IC50 at 72 h | 0.992
C=C1C(=O)OC2C=C(C)C(OC(C)=O)CC3OC3(C)CC(OC(=O)C(C)=CC)C12 (stereo not shown) [Compound 39] | IC50 at 72 h | 10.1
C=C1C(=O)OC2CC3(C)C(CCC(C)=O)C3CC12 (stereo not shown) [Compound 20] | IC50 at 72 h | 19.8
C=C1C(=O)OC2CC3(C)CCCC(C)C3=CC12 (stereo not shown) [Compound 29] | IC50 at 72 h | 5.99

* * *

Measured IC50 values are reported for all entries that follow.
Tested on: T. cruzi Tulahuen strain C2C4
method_summary: In vitro activity against T. cruzi in L-6 host cells (beta-galactosidase/CPRG)
Type: cell-based, Trypanosoma cruzi
assay_conditions: Trypanosoma cruzi, TULAHUEN, L6, 96 h, Tulahuen C2C4 in L-6 cells, 96 h; mean of two independent measurements; read-out: IC50 T. cruzi (Tcr)

compound | IC50
C=C1C(=O)OC2CC3(C)C(CCC(C)=O)C3CC12 (stereo not drawn) [Compound 20] | 39 µM
C=C1C(=O)OC2CC3(C)CCCC(C)C3=CC12 (stereo not drawn) [Compound 29] | 8.3 µM
C=C1C(=O)OC2CC(C)C3(O)C=C(C(C)=O)C4(CC3CC12)C(=O)OC1CC(C)C2(C=CC(C)=O)OC2CC14 (stereo not drawn) [Compound 22] | 95.4 µM
C=C1C(=O)OC2CC(C)C3C(OC(C)=O)CC(OC(C)=O)C3(C)CC12 (stereo not drawn) [Compound 14] | 14.7 µM
C=C1C(=O)OC2CC(C)C3C(O)CC(OC(=O)C(C)=CC)C3(C)C(O)C12 (stereo not drawn) [Compound 12] | 49.2 µM
CC(=O)OC1C2C(CC(C)C3C=CC(=O)C31C)OC(=O)C2C (stereo not drawn) [Compound 6] | 6.93 µM
C=C1C(=O)OC2CC3(C)CC(OC(C)=O)CC(=C)C3CC12 (stereo not drawn) [Compound 27] | 24.3 µM
C=C1C(=O)OC2CC(C)C3=CC(=O)OC3CC12 (stereo not drawn) [Compound 24] | > 120 µM
CC(C)CC(=O)OC1C2C(CC(C)C3C=CC(=O)C31C)OC(=O)C2C (stereo not drawn) [Compound 7] | 3.53 µM
C=C1C(=O)O[C@H]2[C@H]1CC/C(C)=C/CC[C@@]1(C)O[C@@H]21 [Compound 34, parthenolide] | 10.7 µM
C=C1C(=O)OC2CC(C)C3(C=CC(C)=O)OC3CC12 (stereo not drawn) [Compound 19, 8-epixanthatin-1,5-epoxide] | 11.3 µM
C=C1C(=O)OC2CC(C)C3C(OC(C)=O)CC(O)C3(C)C(O)C12 (stereo not drawn) [Compound 9] | 45.8 µM
C=C1C(=O)OC2CC(C)C(CCC(C)=O)=CCC12 (stereo not drawn) [Compound 17] | > 120 µM
C=C1C(=O)OC2CC3(C)CC(O)CC(=C)C3CC12 (stereo not drawn) [Compound 26] | 24.8 µM
C=C1C(=O)OC2CC(C)C3C(OC(C)=O)CC(O)C3(COC(C)=O)CC12 (stereo not drawn) [Compound 16] | 44.9 µM
C=C1CC(O)CC2(C)CC3OC(=O)C(C)C3CC12 (stereo not drawn) [Compound 28] | > 120 µM
C=C1C(=O)OC2C=C(C)CCC3OC3(COC(C)=O)CC(OC(=O)C3(C)OC3C)C12 (stereo not drawn) [Compound 37] | 15.8 µM
C=C1C(=O)OC2C=C(C)C(O)CC3OC3(C)CC(OC(=O)C(C)=CC)C12 (stereo not drawn) [Compound 38] | 16.5 µM

* * *

Test system: Trypanosoma brucei rhodesiense STIB 900
method_summary: In vitro activity against T. brucei rhodesiense bloodstream forms (Alamar blue)
Assay type: cell-based
assay_conditions: Trypanosoma brucei, 72 h, bloodstream forms STIB 900, 72 h; mean of two independent measurements; read-out: IC50 T. brucei rhodes. (Tbr)
pIC50: −log10 of the molar value.
Measured pIC50 values are reported for all entries that follow.

compound | pIC50
C=C1C(=O)OC2CC(C)C3C(OC(C)=O)CC(O)C3(COC(C)=O)CC12 (stereo not drawn) | 4.87
C=C1C(=O)OC2CC(C)C3C(OC(C)=O)CC(O)C3(C)C(O)C12 (stereo not drawn) | 5.03
C=C1C(=O)OC2CC(C)C3(C=CC(C)=O)OC3CC12 (stereo not drawn) [Compound 19, 8-epixanthatin-1,5-epoxide] | 6.48

* * *

method_summary: in vitro
assay_conditions: rat, IC50 Cytotoxicity (L6), L6 rat skeletal myoblasts, 72 h; mean of two independent measurements

compound | value_units | IC50
C=C1C(=O)OC2CC(C)C3C(O)CC(OC(=O)C(C)=CC)C3(C)C(O)C12 (stereo not drawn) [Compound 12] | µM | 16.7
C=C1C(=O)OC2C=C(C)CCC3OC3(CO)CC(OC(=O)C3(C)OC3C)C12 (stereo not drawn) [Compound 36] | µM | 13.6
C=C1C(=O)OC2CC(C)C3C(O)CC(O)C3(C)C(OC(=O)C(C)=CC)C12 (stereo not drawn) [Compound 13] | µM | 31.8
C=C1C(=O)OC2CC(C)C3C=CC(=O)C3(C)C(OC(=O)C(C)C)C12 (stereo not drawn) [Compound 3] | µM | 1.03
C=C1C(=O)OC2CC(C)C3C(OC(C)=O)CC(O)C3(C)CC12 (stereo not drawn) [Compound 10] | µM | 4.39
C=C1C(=O)OC2CC(C)C3C(OC(C)=O)CC(O)C3(C)C(OC(C)=O)C12 (stereo not drawn) [Compound 15] | µM | 7.28
C=C1C(=O)OC2CC(C)C3C=CC(=O)C3(C)C(OC(=O)CC(C)C)C12 (stereo not drawn) [Compound 4] | µM | 1.3
C=C1C(=O)OC2CC(C)C3C(OC(C)=O)CC(O)C3(C)C(O)C12 (stereo not drawn) [Compound 9] | µM | 12.3
C=C1C(=O)OC2CC(C)C3C=CC(=O)C3(C)C(OC(C)=O)C12 (stereo not drawn) [Compound 2] | µM | 0.809

* * *

Test system: Trypanosoma brucei rhodesiense STIB 900
method_summary: In vitro activity against T. brucei rhodesiense bloodstream forms (Alamar blue)
Assay type: cell-based
assay_conditions: Trypanosoma brucei, 72 h, bloodstream forms STIB 900, 72 h; mean of two independent measurements; read-out: IC50 T. brucei rhodes. (Tbr)
pIC50: −log10 of the molar value.
Label scheme for pIC50: lower than 6 is false (0), 6 and above is true (1).

molecule | target_under_test | label_value
C=C1C(=O)OC2CC(C)C(CCC(C)=O)=CCC12 (stereo not drawn) [Compound 17] | Trypanosoma brucei rhodesiense STIB 900 | false (0)
CC1CC2OC(=O)C34CC5(C)C=CC13C(CC24)O5 (stereo not drawn) [Compound 23] | Trypanosoma brucei rhodesiense STIB 900 | false (0)
CC1=CCCC2(C)OC2C2OC(=O)C(C)C2CC1 (stereo not drawn) [Compound 35] | Trypanosoma brucei rhodesiense STIB 900 | false (0)
C=C1C(=O)O[C@H]2[C@H]1CC/C(C)=C/CC[C@@]1(C)O[C@@H]21 [Compound 34, parthenolide] | Trypanosoma brucei rhodesiense STIB 900 | true (1)
C=C1C(=O)OC2CC3(C)CC(OC(C)=O)CC(=C)C3CC12 (stereo not drawn) [Compound 27] | Trypanosoma brucei rhodesiense STIB 900 | false (0)
C=C1C(=O)OC2CC(C)C3C=CC(=O)C3(C)C(OC(=O)CC(C)C)C12 (stereo not drawn) [Compound 4] | Trypanosoma brucei rhodesiense STIB 900 | true (1)
C=C1C(=O)OC2CC(C)C3C(O)CC(O)C3(C)C(OC(=O)C(C)=CC)C12 (stereo not drawn) [Compound 13] | Trypanosoma brucei rhodesiense STIB 900 | false (0)
C=C1C(=O)OC2CC(C)C3C=CC(=O)C3(C)C(OC(=O)C(C)C)C12 (stereo not drawn) [Compound 3] | Trypanosoma brucei rhodesiense STIB 900 | true (1)
